- system name: mouse BLyS protein (mouse, UniProt Q9WU72 69-309)
- Sequence (Q9WU72 69-309): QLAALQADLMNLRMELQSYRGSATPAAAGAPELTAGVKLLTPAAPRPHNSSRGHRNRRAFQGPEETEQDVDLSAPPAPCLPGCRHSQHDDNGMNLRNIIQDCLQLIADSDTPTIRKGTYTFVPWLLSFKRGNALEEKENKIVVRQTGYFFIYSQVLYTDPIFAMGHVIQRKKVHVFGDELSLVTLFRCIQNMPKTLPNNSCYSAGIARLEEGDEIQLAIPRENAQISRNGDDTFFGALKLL
- protocol description: cell-based or functional assay
The following binders are listed with their measured mouse B lymphocyte proliferation (OD450 nm), antibody 0.8 nM values.
measured endpoint: mouse B lymphocyte proliferation (OD450 nm), antibody 0.8 nM

binder	value observed
93C6F10D3 (antibody, V domains shown, Mouse hybridoma monoclonal antibody purified on Protein G) VH: EVQLVESGGGLVTPGGSLKLSCVASGFAFSTYGMSWVRQTPERRLEWVAYISGGGGSIYYPDSVKGRFTISRDNAKNILYLQMSSLKSEDTAMYHCTRHPDLLLRYDYALDHWGQGTSVTVSS VL: DIQMTQSPASLSASVGETVTITCRASENIHIYLAWYQQKQGKSPQLLVYNGKTLADGVPSRFSGSGSGTQYSLKINTLQPEDFGNYYCQHFWNSTWTFGGGTKLEIK	2530
97E7B3F2 (antibody, V domains shown, Mouse hybridoma monoclonal antibody purified on Protein G) VH: EVQLQQSGPELVKSGASVKISCKASGYTFTDHKMHWVKQSHGKSLEWIGYISPYNGGTGYNQKFKSKVTLTVDISSSTAYMELRSLTSEDSAVYYCARWGFYDVMDSWGQGTSVTVSS VL: DVLLTQTPLSLPVSLGDQASISCRSSQTIVHIIGDTYLEWYLQKPGQSPKLLIYKVSNRFSGVPDRFSGSGAGTDFTLKISRVEAEDLGVYYCFQGSHVPRTFGGGTKLEIK	2310
67A2E1D10 (antibody, V domains shown, Mouse hybridoma monoclonal antibody purified on Protein G) VH: EVQLQQSGAELVKPGASVKLSCTASGFNIKNYYMHWVKQRTEEGLEWIGRIDPEDGETKYAPKFQAKATITADTSSNTAYLQLSSLTSEDTAVYFCARKGYYGNYGAWFAYWGQGTLVTVSA VL: DIQMTQSPASLSVSVGETVTITCRASEDLYSNLAWYQQKQGKSPQLLVYAATFLADGVPSRFSGSGSGTQYSLKINSLQSEDFGNYYCQHFWGTPPTFGGGTKLEIK	2490

Values from patent US20210347873A1
